Test: NCI Yeast Anticancer Drug Screen. Data for the sgs1 mgt1 strain (AID 161);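 note: 0% = growth of cultures given vehicle only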
Conditions: S. cerevisiae sgs1 mgt1 strain, hits give high values; at 50.0 µM unless noted
This is part of a sample that, as a whole, favours compounds with a hit. Of some 79,000 tested, about 15% had one in any assay.
I'd appreciate it if you could supply growth inhibition values for the items below.
One number for each entry, in %.

See these solved cases before continuing.
- CS(=O)(=O)OCC(Br)C(Br)COS(C)(=O)=O (stereo not given): 7.7
- CCOP(=O)(OCC)/C(=C\n1c(=S)[nH]c2cc(C)ccc21)C(=O)OC: 13.3
- CC(C)c1cccc(C(C)C)c1NC(=O)N1CCCCC1: 0.05
- CC1=CC(=O)[C@@H](O)[C@@]2(C)C1C[C@H]1OC(=O)[C@H](C/C=C(/C)C(C)C)[C@H]3C(C)C(O)C4(O)OC[C@@]31C42 (stereo not given in full): 72

Noted for O=C(O)COc1ccc(F)cc1F : its growth inhibition reads 1.65

----------
Consider the following compounds; for each one, report its growth inhibition.
Test: NCI Yeast Anticancer Drug Screen. Data for the mec2-1 strain (AID 157)
Details: S. cerevisiae mec2-1 strain, hits give high values; at 50.0 µM unless noted
Compounds without any hit were thinned out: in the full panel of roughly 79,000, 15% have a hit. Activity calls are given as the source filed them. Rule as the data show it: active = growth inhibition above about 70%; inactive = the rest.

Worked set:
- CC(C)NCC(O)COc1cccc2[nH]c3ccccc3c12 (stereo not given): -8.45% (inactive)
- CCOC(=O)C(CCCCNC(=O)CC)NC(=O)CC (stereo not given): 1.3% (inactive)
- Cc1cccc2c(N3CCN(c4ccccc4)CC3)c3c(nc12)CCCCC3: -22.7% (inactive)
- Cc1ccc(S(=O)(=O)OC2CCN(C)CC2)cc1: 6.75% (inactive)
- N#CC1(OC2CCCCO2)Cc2ccccc2C1 (stereo not given): 2.45% (inactive)

Okay, here is my list. What is growth inhibition for each of these?
1. Cc1cc2ccccc2c[n+]1CC(O)C[n+]1cc2ccccc2cc1C
2. CC(C)(C)C(=O)Oc1ccc([N+](=O)[O-])cc1
3. CN(C)/C=N/NC(=O)/C(C#N)=C/N(C)C
4. C=C=C(C)[Si](C)(C)C
5. O=C1OC2(CCCCC2)OC1c1ccccc1 (stereo not given)
6. CCOc1ccc(C(C)c2cc3c(cc2OCC(=O)O)OCO3)cc1 (stereo not given)

Reply:
1. -31.1% (inactive)
2. -0.35% (inactive)
3. 2.3% (inactive)
4. 3.85% (inactive)
5. 4.2% (inactive)
6. -6.4% (inactive)

I'm hoping you can list growth inhibition for every compound here, please.
1. O=CC(=O)O
2. Cc1ccc(C(=O)CC(Sc2ccccc2N)c2c(Cl)cccc2Cl)c(C)c1 (stereo not given)
3. NNC(=O)c1nnn(CCc2ccccc2)c1C(=O)NN
4. COc1ccccc1/C=C1\SC(=S)NC1=O
5. CCCCCCCCCCCCCCCCCC(=O)N/N=C\c1c(O)ccc2ccccc12
6. CC(O)c1cccc(NC(=O)NC2CCCCC2)c1 (stereo not given)
7. O=C(Nc1ccccc1)c1cc(S(=O)(=O)Nc2n[nH]c(=O)[nH]2)c(SSc2cc(Cl)c(C(=O)Nc3ccccc3)cc2S(=O)(=O)Nc2n[nH]c(=O)[nH]2)cc1Cl

Reply:
["-19.6% (inactive)", "-26.4% (inactive)", "3.25% (inactive)", "-36.9% (inactive)", "11.7% (inactive)", "28.1% (inactive)", "22.7% (inactive)"]

----------
Experiment: NCI Yeast Anticancer Drug Screen. Data for the mec2-1 strain (AID 157)
Conditions: S. cerevisiae mec2-1 strain, hits give high values; at 50.0 µM unless noted
About 79,000 compounds went through this panel and 15% of them were active in at least one assay; those are over-represented in the sample as a whole.
MEASUREMENT LABEL: growth inhibition (%)
One number for each entry, in %.

Each compound below has a reported value. Please supply its growth inhibition.
1. CCOc1cc2c(cc1C(C)c1ccc(OC)c(C)c1)OCO2 (stereo unspecified)
2. Nc1cnccc1N1CCN(c2cccc3ccccc23)CC1

Reply:
[5.6, 99.3]

List growth inhibition for every entry below, keeping the order given.
1. Cc1ccc(S(=O)(=O)OCCOCCOS(=O)(=O)c2ccc(C)cc2)cc1
2. CN1NC(c2ccccc2)=C(C#N)C(=O)CC1c1ccccc1 (stereo unspecified)
3. COCCOC(=O)COc1ccccc1
4. Cc1cc(=O)[nH]c(NNC(C#N)c2ccc(O)cc2)n1 (stereo unspecified)
5. COc1ccc2c(c1)[n+](=O)c(C(=O)C/C(=N/NC(=O)C[N+](C)(C)C)C(=O)Nc1cccc(C)c1C)c(C)n2O
6. O=[N+]([O-])c1ccn(Cc2ccccc2)c1
7. Cc1ccc(-c2c3ccccc3cc3ccccc23)c(C)c1

Reply:
[-0.4, -2.5, 23, -51.3, -2.25, 2.95, -11.1]

Please go through the list and note growth inhibition for each compound.
1. COC(=O)/C([O-])=C(\C(=O)OC)[n+]1cc(Br)cc2ccccc21
2. CCOc1ccccc1Nc1ccc(N)cc1S(=O)(=O)O

Reply:
1: 1.85; 2: 0.85

----------
Assay: NCI Yeast Anticancer Drug Screen. Data for the rad50 strain (AID 155);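 note: 0% = growth of vehicle-only cultures of the same strain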
Conditions: S. cerevisiae rad50 strain growth inhibition, hits give high values; at 50.0 µM unless noted
Compounds without any hit were thinned out: in the full panel of roughly 79,000, 15% have a hit.
Give growth inhibition for every item shown.
One number for each entry, in %.

// worked examples, growth inhibition included
- CC(=O)OC(C)(C)C#CC(C)(C)OC(C)=O: -9.95
- CCOC(=O)c1[nH]c(C)c(C#N)c1C: -34.4
- COc1cc(OC)c(OC)cc1/C=C/c1nc2ccccc2s1: 25.1
- CCN(CC)C/C(C)=C(/c1ccccc1)c1ccccc1S(N)(=O)=O: 5.8
- Oc1ccccc1/C=N\N=C\NN/C=N/N=C/c1ccccc1O: -8.1
- NC1CCC[C@@H](O)[C@H]1O (stereo partly drawn): -4.9

# batch size: 7; output growth inhibition per entry
1. O=C(Nc1ccccc1Cl)c1cc2cc(N=Nc3ccc(Br)cc3)ccc2oc1=O
2. CC(C)NC(=O)OCc1c(COC(=O)NC(C)C)c(-c2ccc(F)cc2F)n2c1CCC2
3. O=C1C(=O)c2ccccc2C(O)=C1CN1CCOCC1
4. Cc1cc2cccc(Cl)c2nc1C(=O)c1ccccc1
5. C[n+]1cn(-c2nc3ccccc3nc2[N-]S(=O)(=O)c2ccccc2)c2ccccc21
6. C[C@]12C=CC(=O)C=C1CC[C@@H]1[C@@H]2C(=O)C[C@@]2(C)[C@H]1CC[C@]2(O)C(=O)COC(=O)CSc1c2ccccc2nc2ccccc12
7. CC(C)c1cc(C(C)C)c(S(=O)(=O)N/N=C2\C=CCC(C)(C)C2)c(C(C)C)c1

Reply:
[0.55, 12, 31.6, -9.3, -0.2, 35.6, 41.1]

----------
Assay: NCI Yeast Anticancer Drug Screen. Data for the mlh1 rad18 strain (AID 175)
Settings: S. cerevisiae mlh1 rad18 strain growth inhibition, hits give high values; at 50.0 µM unless noted
The panel holds about 79,000 compounds, 15% with a hit somewhere; the sample as a whole holds those more often.
Give measured growth inhibition for each item. Keep answers brief.
Give bare numbers, in %.

Example entries and their recorded answers appear below.
• O=C(O)/C=C/C(=O)NCCCCCCNC(=O)/C=C/C(=O)O = -15.1
• O=C(O)c1ccc(P(=O)(O)O)cc1[N+](=O)[O-] = -7
• CCOC(=O)c1ccc(NC(=O)Nc2cc(Cl)ccc2C)cc1 = 25.4
• COc1ccccc1CN1CCCN(Cc2ccccc2OC)C1c1ccc(N(C)C)cc1 = 49.2
• CC(=O)c1cccc(OC(=O)Nc2ccccc2)c1 = 22.4
• Cc1cc(S(=O)(=O)Nc2nc(N)nc(N3N=CCC3C)n2)c(SCC(=O)O)cc1Cl (configuration not stated) = 2.1
• O=c1n(-c2ccccc2)c(=O)n(-c2ccccc2)c(=O)n1-c1ccccc1 = -14.7
• C=C1CC(c2ccccc2)(c2cccs2)OC1=O (configuration not stated) = 90.7

Give growth inhibition for each of the items listed below.
1. C=C1N(C=O)C(C)(C)N(O)C1(C)C
2. O=C1c2ccccc2NC(O)c2cccn21 (configuration not stated)
3. CN1CC2=C(NC(=S)NC2c2ccc(Cl)cc2)/C(=C/c2ccc(Cl)cc2)C1 (configuration not stated)
4. NC(Cc1cc(Br)c(Oc2ccc(O)cc2)c(Br)c1)C(=O)O (configuration not stated)

Reply:
10.9
-5.45
4.15
20.9

----------
Test: NCI Yeast Anticancer Drug Screen. Data for the rad50 strain (AID 155);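 note: 0% = growth of vehicle-only cultures of the same strain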
Conditions: S. cerevisiae rad50 strain growth inhibition, hits give high values; at 50.0 µM unless noted
Compounds without any hit were thinned out: in the full panel of roughly 79,000, 15% have a hit. The source made the active and inactive calls. Rule as the data show it: active = growth inhibition above about 70%; inactive = the rest.
Would you kindly list growth inhibition for each of these compounds?

Worked cases, growth inhibition given:
- CC(Sc1nc(N)nc2nc[nH]c12)C(=O)O (configuration not stated): -15.2% (inactive)
- CCCCCSC(=O)C(N)=O: 10.9% (inactive)
- CCCCOC(=O)C(O)Cc1ccoc1 (configuration not stated): 5.25% (inactive)
- O=C(Cc1ccccc1)c1ccccc1C(=O)NCc1ccncc1: 1.7% (inactive)
- C[N+]1(Cc2ccco2)CCCCC1: -12.6% (inactive)

Working through the 6 compounds below one at a time, give growth inhibition for each.
1. CC(O)C(O)C(O)C(O)c1nc2ccccc2[nH]1 (configuration not stated)
2. O=c1c2cc(Cl)ccc2c2ccc(Cl)cc2c(=O)n1-c1ccc2c(c1)Cc1ccccc1-2
3. CN(C)/C(N)=N\c1nc(O)cc(=O)[nH]1
4. CCOc1ccc(NC(=O)C(=O)CC(=O)c2c(C)n([O-])c3ccccc3[n+]2=O)cc1
5. CC1([N+](=O)[O-])COC(Cc2ccccc2)OC1 (configuration not stated)
6. NC(=S)N/N=C1\CCCc2ccccc21

Reply:
1: -18.4% (inactive); 2: 1.65% (inactive); 3: 6.7% (inactive); 4: -5.95% (inactive); 5: -7.7% (inactive); 6: 60.8% (inactive)

Memo: N/N=C1\C(=O)N(C2CCCCCC2)C(=O)C1C(=O)NC1CCCCCC1 (configuration not stated) , reported growth inhibition: -13.3% (inactive)
